# Tested on: 991263-137-R1-J2-PDC complex spheroid viability;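 further: spheroids exposed to compounds for 7 days before readout; 100% = DMSO vehicle control viability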
# Measurement Protocol: Anticancer human tumor 991263-137-R1-J2-PDC patient-derived colon adenocarcinoma cell line growth inhibition [POLQ]
# Protocol Conditions: second compound 10 µM; first compound 0.1 µM; stronger effect = lower value
# Procedure: Multicellular complex tumor spheroid response to Polymerase (POL) inhibitors (novobiocin, ART-558, RP6685) in combination with a variety of drugs and investigational agents in selected tumor cell lines The POL inhibitors (novobiocin, ART-558, and RP6685) were evaluated both individually and in combination with standard of care and investigational anticancer small molecules within a complex spheroid model of solid tumors. . […]
viability, T/C reference
Give just the number in %; leave the unit off.

Sample answers from the record:
CCCS(=O)(=O)Nc1ccc(F)c(C(=O)c2c[nH]c3ncc(-c4ccc(Cl)cc4)cc23)c1F + COC1C(OC(N)=O)C(O)C(Oc2ccc3c(O)c(NC(=O)c4ccc(O)c(CC=C(C)C)c4)c(=O)oc3c2C)OC1(C)C ... 118
C=CCn1c(=O)c2cnc(Nc3ccc(N4CCN(C)CC4)cc3)nc2n1-c1cccc(C(C)(C)O)n1 + Cc1cccc(N(C)C(=O)C2C(O)CCN2c2nc(C)cc(C(F)(F)F)c2C#N)c1 ... 106

// returns reported viability, T/C for input C=CC(=O)N1CCN(c2nc(=O)n(-c3c(C)ccnc3C(C)C)c3nc(-c4c(O)cccc4F)c(F)cc23)C(C)C1 (stereo not drawn) + Cc1cccc(N(C)C(=O)C2C(O)CCN2c2nc(C)cc(C(F)(F)F)c2C#N)c1
107
